Reported activity, negative = cell killing by item:
Assay: Drug repurposing screens with cells derived from glioblastoma tumor samples (AID 1345199); also: % is scaled to controls: 0 for no effect and ±100 for the full control effect; nearly all actives have a fitted effect of over 40% in size
Conditions: GBM patient neurospheres viability, ATP luminescence, 48 h; at 46 µM (top of the series); tumour line A
Experimental: CD133+ cells were isolated from GBM patient biopsies and cultured as neurospheres. Neurospheres from four patients were used to screen the NCATS pharmaceutical collection (NPC) library of approved drugs and bioactive compounds. […] The neurospheres were incubated with drugs for 48 hours in 1536-well format, then assayed with an ATP content cell viability assay. […]
Results filed as inconclusive are left out.
outcome-measure: activity, negative = cell killing (%)

• CC1CCc2c(N3CCC(O)CC3)c(F)cc3c(=O)c(C(=O)O)cn1c23 (configuration not stated) = -14.1
• CC(=O)Oc1ccc(C)cc1 = -28.8
• CC(=O)OC[C@H]1O[C@@H](n2ncc(=O)[nH]c2=O)[C@H](OC(C)=O)[C@@H]1OC(C)=O = -30.4
• CC1=C(C(=O)O)N2C(=O)[C@@H](NC(=O)[C@H](N)c3ccccc3)[C@H]2SC1 = -19.6
• CC(=O)OCC1=C(C(=O)O)N2C(=O)[C@@H](NC(=O)CSc3ccncc3)[C@H]2SC1 = -34.9
• CCOc1ccc(NC(C)=O)cc1 = -27
• N=C(N)N1CCc2ccccc2C1 = -7.22
• NC(=O)c1ccccc1O = -27.6
• OC[C@H]1O[C@@H]2O[C@H]3[C@H](O)[C@@H](O)[C@@H](O[C@H]4[C@H](O)[C@@H](O)[C@@H](O[C@H]5[C@H](O)[C@@H](O)[C@@H](O[C@H]6[C@H](O)[C@@H](O)[C@@H](O[C@H]7[C@H](O)[C@@H](O)[C@@H](O[C@H]8[C@H](O)[C@@H](O)[C@@H](O[C@H]1[C@H](O)[C@H]2O)O[C@@H]8CO)O[C@@H]7CO)O[C@@H]6CO)O[C@@H]5CO)O[C@@H]4CO)O[C@@H]3CO = -16.2
• Cc1cc(NS(=O)(=O)c2ccc(N)cc2)nc(C)n1 = -27.1
• NCCNC(=O)c1ccc(Cl)cn1 = -29.4
• CCNC(=O)NCc1cccc(Cl)c1 = -30
• CC(=O)Nc1ccc(OCC(O)CNC(C)C)cc1 (configuration not stated) = -46.4
• CCCN(CCC)S(=O)(=O)c1ccc(C(=O)O)cc1 = -4.85
• CC(=O)Nc1ccc(OC(=O)c2ccccc2OC(C)=O)cc1 = -15.3
• CC(C)[C@@H]1CC[C@@H](C)CC1=O = -24.9
• CCCCCCCCCCCCCCCC(=O)O = -27.9

----------
Tested on: PC49
Assay: qHTS profiling for inhibitors of Plasmodium falciparum proliferation (AID 504749);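 also: 0% = DMSO vehicle and full inhibition = artemisinin control; nearly all actives have a fitted effect of over 60% in size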
Settings: P. falciparum in erythrocytes, SYBR Green DNA, 72 h; series mostly up to 28.7 µM
Results filed as inconclusive are left out. Active and inactive are the calls of the source. The call rests on the fitted dose curve; in most records, active means well fitted inhibition curve with a large enough effect; inconclusive means small, poorly fitted or top-dose-only effect; inactive means flat fitted curve, though single readings scatter.
outcome-measure: outcome

* CCOc1ccccc1C(N)=O | inactive
* CCOc1ccc(NC(C)=O)cc1 | inactive
* CC(C)(Cc1c[nH]c2ccccc12)NCC(O)COc1ccccc1C#N (configuration not stated) | inactive
* COc1cc(C(=S)N2CCOCC2)ccc1O | inactive
* O=C(O)CCNC(=O)c1ccccc1 | inactive
* NS(=O)(=O)c1ccc(Cl)c(S(N)(=O)=O)c1 | inactive
* NCCNc1cccc2ccccc12 | inactive
* COc1ccccc1N1CCN(CCCCNC(=O)c2ccc(-c3ccc(C(C)=O)cc3)cc2)CC1 | inactive
* O=C(Nc1ncc([N+](=O)[O-])s1)c1cccs1 | inactive
* CCc1oc2ccccc2c1C(=O)c1cc(I)c(O)c(I)c1 | inactive
* Cc1cc(NS(=O)(=O)c2ccc(N)cc2)nc(C)n1 | inactive
* Cc1ncc(CO)c(C=O)c1O | inactive
